Target: SIK3 (Homo sapiens)
Construct: purchased SignalChem S12-11G-100
Sequence (Q9Y2K2 whole entry): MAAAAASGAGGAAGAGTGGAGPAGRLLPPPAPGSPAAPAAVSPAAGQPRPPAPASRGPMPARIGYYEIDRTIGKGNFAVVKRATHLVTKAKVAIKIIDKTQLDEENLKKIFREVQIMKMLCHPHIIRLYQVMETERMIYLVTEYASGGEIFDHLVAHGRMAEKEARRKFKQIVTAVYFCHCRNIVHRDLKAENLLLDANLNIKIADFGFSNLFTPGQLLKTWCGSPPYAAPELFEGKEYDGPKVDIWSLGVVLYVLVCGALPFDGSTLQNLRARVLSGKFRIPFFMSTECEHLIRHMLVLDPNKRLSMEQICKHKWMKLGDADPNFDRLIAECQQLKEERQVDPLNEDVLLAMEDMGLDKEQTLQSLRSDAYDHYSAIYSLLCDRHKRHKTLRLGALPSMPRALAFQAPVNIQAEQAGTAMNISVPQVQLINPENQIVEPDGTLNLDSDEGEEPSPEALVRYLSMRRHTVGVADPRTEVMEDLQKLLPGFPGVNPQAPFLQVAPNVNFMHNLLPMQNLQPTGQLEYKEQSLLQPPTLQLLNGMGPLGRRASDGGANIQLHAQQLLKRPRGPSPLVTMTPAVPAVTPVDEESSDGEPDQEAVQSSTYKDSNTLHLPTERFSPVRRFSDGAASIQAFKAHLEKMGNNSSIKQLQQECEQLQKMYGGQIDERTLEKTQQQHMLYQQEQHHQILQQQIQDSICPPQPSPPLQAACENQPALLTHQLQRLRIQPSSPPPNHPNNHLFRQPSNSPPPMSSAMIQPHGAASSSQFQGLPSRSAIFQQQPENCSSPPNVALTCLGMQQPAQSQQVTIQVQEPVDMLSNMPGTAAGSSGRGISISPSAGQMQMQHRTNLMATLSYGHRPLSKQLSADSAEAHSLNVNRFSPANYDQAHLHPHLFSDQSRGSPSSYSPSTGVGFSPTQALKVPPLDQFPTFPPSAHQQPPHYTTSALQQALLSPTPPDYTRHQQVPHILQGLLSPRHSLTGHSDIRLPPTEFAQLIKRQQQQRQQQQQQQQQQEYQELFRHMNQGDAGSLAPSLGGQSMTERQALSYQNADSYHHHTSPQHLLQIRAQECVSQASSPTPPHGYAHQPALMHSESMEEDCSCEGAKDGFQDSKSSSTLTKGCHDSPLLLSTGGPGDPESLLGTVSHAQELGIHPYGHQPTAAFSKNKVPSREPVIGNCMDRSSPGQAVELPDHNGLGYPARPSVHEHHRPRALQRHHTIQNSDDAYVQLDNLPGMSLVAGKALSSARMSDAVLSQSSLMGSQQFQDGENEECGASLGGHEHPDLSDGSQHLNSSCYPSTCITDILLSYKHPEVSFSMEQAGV
Experiment: biochemical
OUTCOME_MEASURE: IC50

Field: example entries. Status: answers known.
{"COMPOUND": "COc1cc(-n2cnc3cc(-c4cnn(C)c4)ccc32)cc(OC)c1C(=O)N1CCC(F)CC1 [compound 197]", "TESTED_SYSTEM": "SIK3 (Homo sapiens)", "IC50": "> 500 nM"}
{"COMPOUND": "CCNC(=O)c1c(OC)cc(-n2cnc3cc(-c4cnn(CCN5CCOCC5)c4)ccc32)cc1OC [compound 4]", "TESTED_SYSTEM": "SIK3 (Homo sapiens)", "IC50": "10 to 100 nM"}
{"COMPOUND": "COc1cc(-n2cnc3cc(-c4ccc(N5CCCC5)nc4)ccc32)cc(OC)c1C(=O)NCC(F)(F)F [compound 34]", "TESTED_SYSTEM": "SIK3 (Homo sapiens)", "IC50": "10 to 100 nM"}
{"COMPOUND": "COc1cc(-c2cnc3cc(-c4cn(C)cn4)ccn23)cc(OC)c1C(=O)N[C@@H](C)C(F)(F)F [compound 216]", "TESTED_SYSTEM": "SIK3 (Homo sapiens)", "IC50": "100 to 500 nM"}
{"COMPOUND": "COc1cc(-n2cnc3cc(-c4cnn(C)c4)ccc32)cc(OC)c1C(=O)N1CC(C#N)C1 [compound 192]", "TESTED_SYSTEM": "SIK3 (Homo sapiens)", "IC50": "10 to 100 nM"}
{"COMPOUND": "COc1cc(-n2cnc3cc(-c4ccnnc4)ccc32)cc(OC)c1C(=O)NCC(F)(F)F [compound 93]", "TESTED_SYSTEM": "SIK3 (Homo sapiens)", "IC50": "10 to 100 nM"}
{"COMPOUND": "COc1cc(-n2cnc3cc(-n4cnc(C)n4)ccc32)cc(OC)c1C(=O)NCC(F)(F)F [Cpd 166]", "TESTED_SYSTEM": "SIK3 (Homo sapiens)", "IC50": "100 to 500 nM"}
{"COMPOUND": "COc1cc(-n2cnc3cc(-c4cnn(C)c4)ccc32)cc(OC)c1C(=O)NC1CCS(=O)(=O)C1 (centres unmarked) [compound 66]", "TESTED_SYSTEM": "SIK3 (Homo sapiens)", "IC50": "100 to 500 nM"}
{"COMPOUND": "COc1cc(-n2cnc3cc(-c4nc(C)no4)ccc32)cc(OC)c1C(=O)NCC(F)(F)F [Cpd 169]", "TESTED_SYSTEM": "SIK3 (Homo sapiens)", "IC50": "> 500 nM"}
{"COMPOUND": "COc1cc(-c2cnc3cc(-c4cnn(CC(=O)OC(C)(C)C)c4)ccn23)cc(OC)c1C(=O)NCC(F)(F)F [Cpd 229]", "TESTED_SYSTEM": "SIK3 (Homo sapiens)", "IC50": "0.01 to 10 nM"}

Batch request: IC50 for each of the following compounds.
1. COc1cc(-n2cnc3cc(-c4cnn(C)c4)ccc32)cc(OC)c1C(=O)N1CC2(COC2)C1 [compound 194]
2. COc1cc(-n2cnc3cc(-c4cnn(C)c4)ccc32)cc(OC)c1C(=O)N1CC(F)(F)C1 [compound 142]
3. COc1cc(-n2cnc3cc(-c4cn(C)cn4)ccc32)cc(OC)c1C(=O)NCC(F)(F)F [Cpd 137]
4. COc1cc(-c2cnc3cc(-c4cnn(C)c4)ccn23)cc(OC)c1C(=O)N1CCC(F)(F)C1 [compound 211]
5. CCNC(=O)c1c(OC)cc(-c2cnn3cc(-c4cnn(C)c4)ccc23)cc1OC(F)F [compound 117]

100 to 500 nM
10 to 100 nM
10 to 100 nM
10 to 100 nM
0.01 to 10 nM
